Tested on: HaCaT keratinocytes
Test: Kinetics of melatonin metabolism in untreated keratinocytes (intracellular levels)
Format: in vitro ADME, human
Settings: not preincubated with melatonin, no UV
parameter: intracellular level in untreated keratinocytes, initial (basal) (pmoles/1000 cells)

P. COc1ccc2[nH]c(O)c(CCNC(C)=O)c2c1 [2-hydroxymelatonin]
Q. COc1cc2c(CCNC(C)=O)c[nH]c2cc1O [6-hydroxymelatonin]
R. COc1ccc2[nH]cc(CCNC(C)=O)c2c1 [melatonin]
S. COc1ccc(NC=O)c(C(=O)CCNC(C)=O)c1 [AFMK]
Hey, quick one: sort these by intracellular level in untreated keratinocytes, initial (basal), largest value first please. Present the labels in the sequence the task asks for.
R, Q, S, P
